molecular target: Left-right determination factor 2 (Homo sapiens) (UniProt O00292); experiment: LEFTY2 binders on small-molecule microarrays, primary screen, biochemical, small-molecule microarray, 635 nm fluorescence scan (AID 1110); details: LEFTY2 binding, higher = more signal
Sequence (O00292 whole entry, looked up): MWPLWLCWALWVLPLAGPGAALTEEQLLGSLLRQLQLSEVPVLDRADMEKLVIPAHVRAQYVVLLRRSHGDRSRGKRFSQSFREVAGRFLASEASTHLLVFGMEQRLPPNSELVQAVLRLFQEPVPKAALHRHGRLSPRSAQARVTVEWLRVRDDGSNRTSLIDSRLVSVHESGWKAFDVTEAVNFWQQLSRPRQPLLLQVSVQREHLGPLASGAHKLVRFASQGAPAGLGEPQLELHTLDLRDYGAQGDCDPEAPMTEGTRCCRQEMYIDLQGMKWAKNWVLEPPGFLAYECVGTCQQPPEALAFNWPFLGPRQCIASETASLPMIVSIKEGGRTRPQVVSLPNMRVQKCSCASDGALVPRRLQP
Use class 1 when the recorded composite z-score is no lower than 0.05; use class 0 when it is lower.

CN(C)CCCNC(=O)[C@@]1(Cc2ccccc2I)c2ccccc2C(=O)N(Cc2ccccc2C(F)(F)F)[C@H]1c1ccc(CO)cc1 | class 0
COc1ccc(C(O)C2C=CC3C(=O)NC(=O)C3N2Nc2ccccn2)cc1OCc1ccccc1 (stereo not drawn) | class 0
CCCCCCCCCCC(O)C1C=CC2C(=O)N(Cc3ccccc3)C(=O)C2N1n1cnnc1 (stereo not drawn) | class 0

Please tell me: is the compound CCCCC=C[C@@H](NC(=O)c1ccco1)c1ccccc1 at or over 0.05 in terms of composite z-score?
class 1

CCOC(=O)C1=C[C@@H](C(C)C)N(S(=O)(=O)c2ccc(C)cc2)[C@H]1c1ccc(C(C)C)cc1 , same question.
class 1

CCCCC(O)C1C=CC2C(=O)N(C3CCCCC3)C(=O)C2N1Nc1ccc(OC)cc1 (stereo not drawn) , same question.
class 1

COCCOC(=O)N1C(=O)[C@@]2(c3cc(C#CCNC(N)=O)ccc31)[C@H](c1ccc(OCCO)cc1)N1[C@H](c3ccccc3)[C@H](c3ccccc3)OC(=O)[C@H]1[C@@H]2C(=O)N1CCc2cc(OC)c(OC)cc2C1 , same question.
class 1

C=C(COC)C(=O)CC[C@@H](OC(=O)c1cccnc1)c1ccc(CO)o1 , same question.
class 1

* * *

Reported composite z-score values for the following compounds.
biological target: Follistatin (Homo sapiens) (UniProt P19883); test: follistatin binders on small-molecule microarrays, primary screen, biochemical, small-molecule microarray, 635/667 nm fluorescence (AID 1132); settings: FST binding, 635 nm fluorescence, higher = more signal
Sequence (P19883 whole entry, looked up): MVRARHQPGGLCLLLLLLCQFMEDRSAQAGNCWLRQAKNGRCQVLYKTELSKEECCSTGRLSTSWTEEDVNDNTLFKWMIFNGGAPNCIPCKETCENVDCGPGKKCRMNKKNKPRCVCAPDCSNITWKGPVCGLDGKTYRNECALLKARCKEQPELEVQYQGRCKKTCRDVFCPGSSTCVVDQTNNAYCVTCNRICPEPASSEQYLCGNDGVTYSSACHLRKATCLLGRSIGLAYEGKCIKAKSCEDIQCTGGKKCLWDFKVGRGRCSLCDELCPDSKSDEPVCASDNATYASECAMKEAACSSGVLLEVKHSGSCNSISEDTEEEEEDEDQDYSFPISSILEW

Examples from the recorded data:
C=CC(COC(C)=O)NS(=O)(=O)c1ccc(Br)cc1 (configuration not stated) | 0.902
COc1ccc(C#Cc2ccc3c(c2)[C@]2(C(=O)N3)[C@H](c3ccc(O)cc3)N3[C@H](c4ccccc4)[C@H](c4ccccc4)OC(=O)[C@H]3[C@@H]2C(=O)NC[C@H](O)c2ccccc2)cc1 | 1.03
O=C(CCN1CCOCC1)c1cccc(O)c1 | 1.35

Field: next compound
GET /values?readout=composite z-score&item= CC(C)N1CC=CC23O[C@@H]4C=CCOC(=O)[C@@H]4[C@H]2C(=O)N(CCO)[C@@H]3C1=O (some centres not stated)
-0.22

* * *

tested on: XIP peptide (Xip251-270) binding; experiment: small-molecule binders of XIP peptide, primary screen, biochemical, small-molecule microarray, fluorescence 635/667 nm, 0.1 µg/mL protein (AID 1182); settings: fluorescent protein binding, 635 nm, higher = more signal, called active from +8 up or from −8 down
Parameter: composite z-score
Response field accepts a number only; no unit should be typed.

Cc1ccc(S[C@]2(C(=O)O)CC(=O)N(C3Cc4ccccc4C3)[C@@H]2c2ccc(CO)cc2I)cc1 | -0.33
O=C1O[C@@H](c2ccccc2)[C@@H](c2ccccc2)N2[C@@H](c3ccc(OCCO)cc3)[C@]3(C(=O)Nc4ccccc43)[C@@H](C(=O)Nc3nc4ccccc4s3)[C@H]12 | 0.615
CN1CCC(CCCO)=CC1c1ccc(CN2CCCC2)cc1 (stereo not given) | 0.426
CC(C)(C)N1CC=CC23O[C@@H]4/C=C\CCCOC(=O)C4[C@H]2C(=O)N(CCO)[C@@H]3C1=O (stereo not given in full) | -0.0146
COCCOC(=O)N1C(=O)[C@@]2(c3cc(C#CCC(C(=O)OC)C(=O)OC)ccc31)[C@H](c1ccc(O)cc1)N1[C@H](c3ccccc3)[C@H](c3ccccc3)OC(=O)[C@H]1[C@@H]2C(N)=O | 1.39
CC(C)C[C@@H]1NC(=O)[C@H]2C[C@@H](C(=O)NCCCCCCNC(=O)CS)[C@@H](c3cccc(OCCO)c3)N2C1=O | 0.821
CCOC(=O)C1=C[C@@H](C(C)C)N(S(=O)(=O)c2ccc(C)cc2)[C@H]1c1ccc(C(C)C)cc1 | 0.306
CC(C)NC(=O)[C@@H]1c2ccccc2C(=O)N(Cc2ccccc2Cl)[C@H]1c1ccc(CO)cc1 | 0.989
C=CC(=C)C1=CCO[C@@H]1[C@H]1CCCN1S(=O)(=O)c1ccccc1[N+](=O)[O-] | 0.162
C=CC[C@@]1(C(=O)O)N=C(c2ccc(OCCCO)cc2)O[C@@H]1c1ccccc1N=[N+]=[N-] | 0.926

GET /values?readout=composite z-score&item= Cc1ccccc1C(O)C1C=CC2C(=O)N(C)C(=O)C2N1N1CCCCC1 (stereo not given)
0.547

CN(C)C(=O)[C@@]1(CCC(=O)OC(C)(C)C)N=C(c2ccc(OCCCO)cc2)O[C@H]1c1ccccc1 , same question.
0.373

COC(=O)[C@@]1(Cc2ccccc2)[C@H]2c3cc(C(=O)N(C)C)n(Cc4c(-c5ccccc5)noc4C)c3C[C@H]2CN1C(=O)c1ccccc1 , same question.
0.28

COC(=O)[C@@]1(Cc2ccccc2)[C@H]2c3cc(C(=O)N(C)C)n(Cc4cc(C)n(C)n4)c3C[C@H]2CN1C(=O)c1ccccc1 , same question.
-0.0185

Where these numbers come from: PubChem BioAssay
